# Test system: Aβ40 in conditioned medium of cells stably expressing Amyloid Precursor Protein (APP)
# experimentDescription: In vitro BACE cell-based assay (Aβ40 in conditioned medium, sandwich ELISA)
# testParameters: Homo sapiens, HEK293, average IC50; read-out: HEK cell assay
Can you tell me IC50 for the items I'm about to list?
Give bare numbers, in nM.

Answered cases to consult:
NC1=N[C@@]2(CO1)c1cc(OCc3cccnc3)ccc1Oc1ncc(-c3cccnc3)cc12 [Example 975]; 1080
NC1=N[C@@]2(CO1)c1cc(-c3cccnc3F)ccc1Oc1c(F)cc(-c3ccncc3)cc12 [Example 203]; 7.7
NC1=N[C@@]2(CO1)c1cc(-c3cccnc3F)ccc1Oc1c(F)cc(-c3ccncn3)cc12 [Example 212]; 11.3
CC1(C#Cc2cnc3c(c2)[C@]2(CSC(N)=N2)c2cc(-c4ccc(F)c(C#N)c4)ccc2O3)COC1 [Example 785]; 13
NC1=N[C@@]2(CO1)c1cc(-c3cncnc3)c(F)cc1Oc1c(F)cc(C3CCOCC3)cc12 [Example 1040]; 30
NC1=N[C@@]2(CO1)c1cc(OCc3cccnc3)ccc1Oc1ncc(-c3ccnc(F)c3)cc12 [Example 974]; 2720

Fill in IC50 for each of the 8 molecules listed.
1. NC1=N[C@]2(CS1)c1cc(-c3cccnc3F)ccc1Oc1c2cc(C2=CCOCC2)nc1F [Example 998]
2. NC1=N[C@@]2(CO1)c1cc(-c3cncc(N4CCOCC4)c3)ccc1Oc1c(F)cc(N3CCOCC3)cc12 [Example 209]
3. COc1cc(F)c2c(c1)[C@]1(COC(N)=N1)c1cc(-c3cncc(C(C)(F)F)c3)ccc1O2 [Example 1070]
4. NC1=N[C@@]2(CS1)c1cc(-c3cccnc3F)ccc1Oc1c(F)cc(-c3ccncc3)cc12 [Example 1068]
5. NC1=N[C@@]2(CO1)c1cc(-c3cccnc3F)ccc1Oc1c2cc(Br)nc1F [Example 734]
6. COc1ccc2c(c1)[C@@]1(COC(N)=N1)c1cc(SCc3ccccc3)cnc1O2 [Example 185]
7. CC1(C#Cc2cnc3c(c2)[C@]2(COC(N)=N2)c2cc(-c4cncc(Cl)c4)ccc2O3)COC1 [Example 186]
8. COC(C)(C)COc1cnc2c(c1)[C@@]1(COC(N)=N1)c1cc(-c3cc(Cl)ccc3F)ccc1O2 [Example 318]

Result:
218
209
367
62
2260
10000
3
1810

Can you give me IC50 for all of these, one by one?
1. NC1=N[C@@]2(CO1)c1cc(Oc3ccc(Cl)cn3)ccc1Oc1c(F)cc(N3CCOCC3)cc12 [Example 1061]
2. NC1=N[C@@]2(CS1)c1cc(-c3cnccc3F)ccc1Oc1ncc(-c3cccnc3F)cc12 [Example 788]
3. Cc1cc(-c2cc3c(cn2)Oc2ccc(-c4ccccc4)cc2[C@@]32COC(N)=N2)on1 [Example 366]
4. CC1(COc2cnc3c(c2)C2(COC(N)=N2)c2cc(-c4cc(Cl)ccc4F)ccc2O3)OCCO1 (stereo not drawn) [Example 87]
5. N#Cc1cccc(-c2ccc3c(c2)[C@@]2(CSC(N)=N2)c2cc(C4=CCOCC4)cnc2O3)c1F [Example 763]

Result:
1. 538
2. 59
3. 361
4. 106
5. 17

Kindly give each listed record's IC50.
1. COc1cccc(COc2ccc3c(c2)[C@@]2(COC(N)=N2)c2cc(-c4cccnc4)cnc2O3)c1 [Example 983]
2. NC1=N[C@@]2(CO1)c1cc(-c3cccnc3F)ccc1Oc1cc(F)c(C3CCOCC3)cc12 [Example 334]
3. CC(C)(CF)COc1cc(F)c2c(c1)[C@]1(CSC(N)=N1)c1cc(-c3cccnc3F)ccc1O2 [Example 1081]

Result:
1: 314; 2: 67.6; 3: 899

Look at each molecule and report its IC50.
1. NC1=N[C@@]2(CS1)c1cc(-c3cccnc3F)ccc1Oc1c(F)cc(-c3cccnc3)cc12 [Example 1083]
2. CC1(C)CC(=O)N(c2cc(F)c3c(c2)[C@]2(COC(N)=N2)c2cc(-c4cccnc4)ccc2O3)C1 [Example 798]

Result:
[18, 8]

Below are some molecules; for each one, tell me its IC50.
1. NC1=N[C@@]2(CO1)c1cc(-c3cnccc3F)ccc1Oc1c(F)cc(C3=CCOCC3)cc12 [Example 1044]
2. Cc1cc(-c2cc(F)c3c(c2)[C@]2(COC(N)=N2)c2cc(-c4cccnc4F)ccc2O3)cc(=O)o1 [Example 200]
3. NC1=N[C@@]2(CO1)c1cc(C#CC3CC3)ccc1Oc1cnc(C3=CCOCC3)cc12 [Example 159]
4. CC#Cc1cncc(-c2ccc3c(c2)[C@@]2(COC(N)=N2)c2cc(C4=CCCOC4)nc(OC)c2O3)c1 [Example 836]
5. NC1=N[C@@]2(CO1)c1cc(-c3cncc(F)c3)ccc1Oc1c(F)cc(C3=CCCOC3)cc12 [Example 278]
6. CC1(C)C[C@H](c2cc3c(cn2)Oc2ccc(-c4cccnc4F)cc2[C@@]32COC(N)=N2)CCO1 [Example 377]

Result:
1: 18; 2: 8.5; 3: 84; 4: 4; 5: 3.9; 6: 29.4

* * *

Assign log10(IC50) to each entry below.
# targetEntity: Beta Secretase enzyme (BACE) (Homo sapiens, UniProt P56817)
# Sequence (P56817 46-501, species assumed): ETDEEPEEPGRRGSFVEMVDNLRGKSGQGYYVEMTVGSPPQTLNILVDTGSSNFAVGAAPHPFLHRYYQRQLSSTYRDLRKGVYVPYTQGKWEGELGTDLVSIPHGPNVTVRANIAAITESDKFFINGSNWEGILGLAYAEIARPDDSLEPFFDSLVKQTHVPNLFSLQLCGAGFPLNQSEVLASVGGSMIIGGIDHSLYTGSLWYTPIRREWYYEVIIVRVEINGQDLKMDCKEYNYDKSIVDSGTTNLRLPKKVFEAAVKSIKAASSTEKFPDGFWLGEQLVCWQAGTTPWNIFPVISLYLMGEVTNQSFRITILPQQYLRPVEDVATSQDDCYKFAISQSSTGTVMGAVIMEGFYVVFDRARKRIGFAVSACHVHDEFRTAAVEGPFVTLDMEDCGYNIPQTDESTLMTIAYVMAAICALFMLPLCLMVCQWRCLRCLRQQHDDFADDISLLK
# experimentDescription: In vitro enzymatic BACE FRET (fluorescence resonance energy transfer) assay
# Assay type: biochemical
# testParameters: average IC50, enzyme assay; read-out: BACE 1 FRET assay
A value of 2 here means IC50 of 100 in nM, since values are log10.

Kindly give each listed record's log10(IC50).
1. CC1(COc2cc(F)c3c(c2)[C@]2(COC(N)=N2)c2cc(-c4cncc(F)c4)ccc2O3)COC1 [Example 273]
2. NC1=N[C@@]2(CO1)c1cc(C3=CCOCC3)cnc1Oc1ccc(-c3cccnc3F)c(F)c12 [Example 347]
3. CN1CCN(c2cc3c(cn2)Oc2ccc(-c4cccnc4F)cc2[C@@]32COC(N)=N2)CC1(C)C [Example 529]
4. CC1(COc2ccc3c(c2Br)[C@]2(COC(N)=N2)c2cc(-c4cccnc4)ccc2O3)COC1 [Example 517]
5. COc1ccnc(F)c1-c1ccc2c(c1)[C@@]1(COC(N)=N1)c1cc(Cl)ncc1O2 [Example 680]

Result:
1: -0.15; 2: 2.55; 3: 0.95; 4: 0.92; 5: 1.18

Quick request: log10(IC50) for each listed item, please.
1. CC1(C#Cc2cnc3c(c2)[C@]2(CSC(N)=N2)c2cc(-c4cccnc4F)ccc2O3)COC1 [Example 586]
2. CC1(C)C[C@@H](c2cc3c(cn2)Oc2ccc(-c4cccnc4F)cc2[C@@]32COC(N)=N2)CCO1 [Example 378]
3. NC1=N[C@@]2(CO1)c1cc(-c3ccccc3)ccc1Oc1c(F)cc(-c3cccnn3)cc12 [Example 559]

Result:
[0.30, 0.63, 1.09]

Hey, quick one: what's log10(IC50) for each of these?
1. CC(C)(C)C#Cc1cnc2c(c1)[C@]1(CSC(N)=N1)c1cc(-c3cncnc3)ccc1O2 [Example 629]
2. CC1(C#Cc2cnc3c(c2)[C@]2(COC(N)=N2)c2cc(OCc4ccccc4)ccc2O3)COC1 [Example 973]
3. NC1=N[C@@]2(CO1)c1cc(-c3cncc(F)c3)ccc1Oc1ncc(C3=CCOCC3)cc12 [Example 457]
4. NC1=N[C@@]2(CS1)c1cc(-c3cccnc3F)ccc1Oc1c(F)cc(N3CC4CC3CO4)cc12 (stereo partly drawn) [Example 1078]
5. COc1ncc(-c2cc3c(cn2)Oc2ccc(-c4cccnc4F)cc2[C@@]32COC(N)=N2)cc1F [Example 570]

Result:
[-0.22, 2.27, 0.18, -0.40, 0.30]

Report log10(IC50) for each item below.
1. Cc1cc(-c2ccc3c(c2)[C@@]2(COC(N)=N2)c2cc(C4=CCOCC4)ncc2O3)cnc1F [Example 228]
2. Cc1ccc(-c2cc3c(cn2)Oc2ccc(-c4cncc(Cl)c4)cc2[C@@]32COC(N)=N2)cn1 [Example 227]

Result:
1: 0.40; 2: 0.15

* * *

# targetEntity: Beta Secretase enzyme (BACE) (Homo sapiens, UniProt P56817)
# experimentDescription: In vitro enzymatic BACE FRET (fluorescence resonance energy transfer) assay
# Format: biochemical
# testParameters: average IC50, enzyme assay; read-out: BACE 1 FRET assay
reportedMetric: log10(IC50) (log10 of the value in nM)
Please note: log10 values; quantity IC50; unit nM.

Cc1cc(-c2cc3c(cn2)Oc2ccc(-c4cccnc4F)cc2[C@@]32CSC(N)=N2)ccn1 [Example 934]; 0.00
COCC1SC(N)=NC12c1cc(-c3cccnc3F)ccc1Oc1c(F)cc(OC)cc12 (stereo not shown) [Example 720]; 1.83
NC1=N[C@]2(CO1)c1cc(N3CC[C@@H](F)C3)cc(F)c1Oc1ccc(-c3cccnc3F)c(F)c12 [Example 1053]; 1.01
CC#Cc1cncc(-c2ccc3c(c2)[C@@]2(COC(N)=N2)c2cc(Cl)nc(N4CCC(F)(F)C4)c2O3)c1 [Example 925]; 1.39
COc1ccnc(F)c1-c1ccc2c(c1)[C@@]1(COC(N)=N1)c1cc(C3=CCOCC3)ncc1O2 [Example 612]; -0.22

Record log10(IC50) for all entries; do not skip any.
1. NC1=N[C@@]2(CO1)c1cc(-c3cncc(F)c3)ccc1Oc1c(F)cc([C@H]3CCOC3)cc12 [Example 296]
2. Cc1ncccc1-c1ccc2c(c1)[C@@]1(COC(N)=N1)c1cc(-c3ccnc(F)c3)ncc1O2 [Example 248]

Result:
[0.86, 2.00]
